Target: Dickkopf-related protein 1 (Homo sapiens)
Experiment: DKK1 binders on small-molecule microarrays, primary screen, biochemical, small-molecule microarray, 635 nm fluorescence scan (AID 1106);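 note: score merges emission near 667 nm with signal to noise over three replicate slides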
Conditions: DKK1 binding, higher = more signal
Please map values of composite z-score to classes as shown: I: < -0.3; II: ≥ -0.3 and < 0.5; III: ≥ 0.5

>  <Molecule>
COCCOC(=O)N1C(=O)[C@@]2(c3cc(C#CC4(O)CCCCCC4)ccc31)[C@H](C(=O)N1CCN(c3ncccn3)CC1)[C@H]1C(=O)O[C@H](c3ccccc3)[C@H](c3ccccc3)N1[C@@H]2c1ccccc1OCCO

>  <Qualitative label>
III

$$$$
>  <Molecule>
[N-]=[N+]=Nc1ccccc1C[C@]1(C(=O)O)N=C(c2ccc(OCCCO)cc2)O[C@H]1c1ccccc1N=[N+]=[N-]

>  <Qualitative label>
II

$$$$
>  <Molecule>
COCCOC(=O)N1C(=O)[C@@]2(c3cc(C#CCC(C(=O)OC)C(=O)OC)ccc31)[C@H](C(=O)NC[C@H](O)c1ccccc1)[C@H]1C(=O)O[C@H](c3ccccc3)[C@H](c3ccccc3)N1[C@@H]2c1ccc(OCCO)cc1

>  <Qualitative label>
III

$$$$
>  <Molecule>
COCCCNC(=O)[C@@H]1c2ccccc2C(=O)N(C2Cc3ccccc3C2)[C@H]1c1ccc(CO)cc1

>  <Qualitative label>
II

$$$$
>  <Molecule>
CCOC(=O)C1=C[C@@H](C(C)(C)C)N(S(=O)(=O)c2ccc(C)cc2)[C@H]1c1ccc(C)cc1

>  <Qualitative label>
III

$$$$
>  <Molecule>
O=C1[C@@H]2[C@@H](CC(COc3ccccc3)=C3[C@@H](CCc4ccccc4)OB(O)C[C@@H]32)C(=O)N1Cc1ccccc1

>  <Qualitative label>
II

$$$$
>  <Molecule>
CC(C)c1ccc(NN2C(C(O)Cc3ccccc3)C=CC3C(=O)N(c4ccccc4)C(=O)C32)cc1 (stereo not given)

>  <Qualitative label>
II

$$$$
>  <Molecule>
Cc1ccc(S[C@]2(C(=O)NCc3ccccc3)CC(=O)N(Cc3cc(C(F)(F)F)cc(C(F)(F)F)c3)[C@@H]2c2ccc(CO)cc2I)cc1

>  <Qualitative label>
I

$$$$
>  <Molecule>
COc1ccc([Si](C)(C)[C@H]2[C@H](CCO)O[C@@]3(C(=O)N(Cc4ccc(N5C(=O)c6ccccc6Oc6ccccc65)cc4)c4ccccc43)[C@@H]2C)cc1

>  <Qualitative label>
I

$$$$
>  <Molecule>
COCCOC(=O)N1C(=O)[C@@]2(c3ccccc31)[C@H](c1ccccc1OCCO)N1[C@H](c3ccccc3)[C@H](c3ccccc3)OC(=O)[C@H]1[C@@H]2C(N)=O

>  <Qualitative label>
III

$$$$
>  <Molecule>
O=C1NC(=O)C2C1C=CC(C(O)c1ccccn1)N2Nc1ccc(Cl)cc1Cl (stereo not given)

>  <Qualitative label>
I

$$$$
>  <Molecule>
O=C1C2C=CC(C(O)c3cccc(O)c3)N(Nc3ccccc3)C2C(=O)N1c1ccccc1 (stereo not given)

>  <Qualitative label>
I

$$$$
>  <Molecule>
C=C(COC)/C(=C/C[C@H](OC(C)=O)c1cccc(OCCO)c1)c1cnc2ccccc2c1

>  <Qualitative label>
III

$$$$
>  <Molecule>
C#C[C@@H](CC)O[Si](C#CCCCC#N)(C(C)C)C(C)C

>  <Qualitative label>
II

$$$$
>  <Molecule>
CC(C)CNC(=O)[C@@]1(C)c2ccccc2C(=O)N(Cc2cc(C(F)(F)F)cc(C(F)(F)F)c2)[C@H]1c1ccc(CO)cc1

>  <Qualitative label>
I

$$$$
